SKW3 WT vs KO anti-hKappa-FITC values, listed per item
# TARGET_ENTITY: T1, human CD4 on cells (SKW3 cells; human PBMCs) (human, UniProt P01730 26-458)
# T1 construct: whole, on cells; SKW3 CD4 knockout cells served as the negative cell line; also called hCD4
# PROTOCOL: FACS primary screen, non-clonal hybridoma supernatant, SKW3 vs SKW3 CD4 knockout cells, anti-human kappa FITC

# BINDER, SKW3 WT vs KO anti-hKappa-FITC [fold]
records = [
    ("75110_12C19A (antibody, IgG1, V domains shown, Tested as non-clonal AlivaMab Mouse Kappa hybridoma supernatant: human variable domains and human kappa, mouse Fc) VH: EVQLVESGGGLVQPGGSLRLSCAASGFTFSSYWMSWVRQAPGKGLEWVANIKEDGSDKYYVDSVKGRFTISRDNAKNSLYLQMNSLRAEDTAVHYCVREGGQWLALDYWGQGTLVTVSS VL: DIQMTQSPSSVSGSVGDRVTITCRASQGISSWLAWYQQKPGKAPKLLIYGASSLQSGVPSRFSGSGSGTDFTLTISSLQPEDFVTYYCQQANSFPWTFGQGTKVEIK", 2.3),
    ("75110_04F22A (antibody, V domains shown, Tested as non-clonal AlivaMab Mouse Kappa hybridoma supernatant: human variable domains and human kappa, mouse Fc) VH: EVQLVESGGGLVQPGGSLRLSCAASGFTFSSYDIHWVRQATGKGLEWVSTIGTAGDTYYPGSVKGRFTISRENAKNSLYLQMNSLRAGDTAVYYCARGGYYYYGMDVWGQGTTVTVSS VL: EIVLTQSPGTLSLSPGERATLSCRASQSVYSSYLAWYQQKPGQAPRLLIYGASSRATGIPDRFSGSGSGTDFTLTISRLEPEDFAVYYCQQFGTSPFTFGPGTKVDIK", 1.8),
    ("75110_14P05A (antibody, V domains shown, Tested as non-clonal AlivaMab Mouse Kappa hybridoma supernatant: human variable domains and human kappa, mouse Fc) VH: EVQLVESGGGLVQPGGSLRLSCAASGFTFSSYDVHWVRQATGKGLEWVSTIGTAGDTYYPGSVKGRFTISRENAKNSLYLQMNSLRAGDTAVYYCARGGFYYYGMDVWGQGTTVTVSS VL: EIVLTQSPGTLSLSPGERATLSCRASQSVSSSYLAWYQQKPGQTPRLLIYGASSRATGIPDRFSGSGSGTDFTLTISRLEPEDFAVFYCQQSGSSPFTFGPGTKVDVK", 2.8),
]
